- method: Drug metabolism in human liver cytosol assessed as sulfate conjugate formation at 50 uM in presence of UDPGA after 60 mins by LC-ESI-MS analysis
- Format: ADME, subcellular
- conditionDescription: 1 h
measuredQuantity: Drug metabolism

Guide cases for Drug metabolism, answers given:
CCCCCCCC(=O)OCC(=O)NCc1cc(OC)c(O)cc1I; Metabolite_Notdetected
CCCCC/C=C\C/C=C\C/C=C\C/C=C\CCCC(=O)OCC(=O)NCc1ccc(O)c(OC)c1; Metabolite_Notdetected
COc1cc(CNC(=O)COC(=O)CC/C(C)=C/CC/C(C)=C/CC/C=C(\C)CC/C=C(\C)CCC=C(C)C)ccc1O; Metabolite_Notdetected
CC(C)=CCC/C(C)=C/CC/C(C)=C/CC/C=C(\C)CC/C=C(\C)CCC(=O)OCC(=O)NCc1ccc(O)c(O)c1; Metabolite_Notdetected
CCCCCCCCCCCC(=O)OCC(=O)NCc1cc(OC)c(O)cc1I; Metabolite_Notdetected

I would be grateful if you could share the reported Drug metabolism for CC(C)=CCC/C(C)=C/C(=O)OCC(=O)NCc1ccc(O)c(O)c1 .
Metabolite_Notdetected

Same thing, different molecule: COc1cc(CNC(=O)COC(=O)/C=C(\C)CCC=C(C)C)ccc1O
Metabolite_Notdetected

Try this molecule too: CCCCCCCCCCCC(=O)OCC(=O)NCc1ccc(O)c(OC)c1
Metabolite_Notdetected

What do you have for CCCCCCCCCCCCCCC(=O)OCC(=O)NCc1ccc(O)c(OC)c1 ?
Metabolite_Notdetected

Now consider COc1cc(CNC(=O)COC(=O)/C=C(\C)CCC=C(C)C)c(I)cc1O .
Metabolite_Notdetected

Record: CCCCCCCC/C=C\CCCCCCCC(=O)OCC(=O)NCc1ccc(O)c(OC)c1
Metabolite_Notdetected

Sourced from ChEMBL document CHEMBL4219255
